test_target: human activated kallikrein enzyme (Homo sapiens, UniProt P03952)
Sequence (P03952 391-638 limits assumed): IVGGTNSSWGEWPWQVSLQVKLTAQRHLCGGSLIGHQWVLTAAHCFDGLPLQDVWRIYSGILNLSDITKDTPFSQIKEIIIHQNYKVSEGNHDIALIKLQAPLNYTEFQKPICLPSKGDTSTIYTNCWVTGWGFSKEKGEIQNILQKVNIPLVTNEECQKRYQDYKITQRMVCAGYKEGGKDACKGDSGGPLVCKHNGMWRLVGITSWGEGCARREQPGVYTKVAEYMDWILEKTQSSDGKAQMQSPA
Sequence (P03952 20-390 partner limits assumed): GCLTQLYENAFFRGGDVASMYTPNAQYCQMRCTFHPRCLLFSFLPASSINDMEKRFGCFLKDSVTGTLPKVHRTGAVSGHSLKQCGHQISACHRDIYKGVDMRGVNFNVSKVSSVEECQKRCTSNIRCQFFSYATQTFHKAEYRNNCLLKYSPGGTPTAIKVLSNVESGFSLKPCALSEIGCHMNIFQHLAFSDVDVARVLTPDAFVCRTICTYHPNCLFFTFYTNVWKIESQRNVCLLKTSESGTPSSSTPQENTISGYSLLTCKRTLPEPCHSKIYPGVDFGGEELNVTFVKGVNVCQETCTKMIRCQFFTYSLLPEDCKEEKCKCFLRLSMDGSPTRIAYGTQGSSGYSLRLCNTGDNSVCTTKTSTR
test_name: Plasma kallikrein inhibition, fluorogenic PFR-AMC substrate, 500 pM activated kallikrein format
Type: biochemical
condition_set: 500 pM activated kallikrein, 300 uM PFR-AMC, 30 min preincubation, 10 min reaction; read-out: Primary Dose Response Assay: Average EC50
pEC50: −log10 of the molar value.
So I've got a bunch of molecules here, and I need their pEC50 values.

[
  {
    "molecule": "CN(C)C1CCN(c2cc(C3CC3)cn3cc(CNc4cc(NC(=O)[C@H]5C[C@@H]5c5cccc(Cl)c5)ncn4)nc23)C1 (single isomer, unassigned) [Example I-15]",
    "assay_endpoint": "pEC50",
    "endpoint_result": "8.00 to 9.00"
  },
  {
    "molecule": "CCOC(=O)CN1CCN(c2cc(C3CC3)cn3cc(CNc4ccnc(NC(=O)[C@H]5C[C@@H]5c5cccc(Cl)c5)c4)nc23)CC1 [Example 600]",
    "assay_endpoint": "pEC50",
    "endpoint_result": "> 9.00"
  },
  {
    "molecule": "Cc1ccnc([C@H]2C[C@@H]2C(=O)Nc2nc(C)nc(NCc3cn4cc(C5CC5)cc(N5CC(=O)N(C)C5=O)c4n3)n2)n1 (racemic) [Example 525]",
    "assay_endpoint": "pEC50",
    "endpoint_result": "> 9.00"
  },
  {
    "molecule": "O=C(Nc1cc(OCc2cn3cc(C4CC4)ccc3n2)ncn1)[C@H]1C[C@@H]1c1cccc(Cl)c1 (racemic) [Example 104]",
    "assay_endpoint": "pEC50",
    "endpoint_result": "6.00 to 7.00"
  },
  {
    "molecule": "Cc1ccnc([C@H]2C[C@@H]2C(=O)Nc2cc(NCc3cn4cc(C5CC5)cc(N5CC(=O)N(C)C5=O)c4n3)c(C(F)(F)F)nn2)n1 [Example I-640]",
    "assay_endpoint": "pEC50",
    "endpoint_result": "> 9.00"
  },
  {
    "molecule": "Cc1ccnc([C@H]2C[C@@H]2C(=O)Nc2cc(N[C@H](C)c3cn4cc(C(C)F)cc(N5CC(=O)N(C)C5=O)c4n3)ncn2)n1 (some centres unmarked) [Example 530]",
    "assay_endpoint": "pEC50",
    "endpoint_result": "> 9.00"
  },
  {
    "molecule": "COCc1nc(NC(=O)[C@H]2C[C@@H]2c2nccc(C)n2)cc(OCc2cn3cc(C4CC4)cc(N4CC(=O)N(C)C4=O)c3n2)n1 [Example 551]",
    "assay_endpoint": "pEC50",
    "endpoint_result": "> 9.00"
  }
]

With those in mind, consider the next molecule.
Query COCc1nc(NC(=O)[C@H]2C[C@@H]2c2nccc(C)n2)cc(N[C@H](C)c2cn3cc(C)cc(N4CC(=O)N(C)C4=O)c3n2)n1 [Example 438] yields pEC50 of > 9.00

---

test_target: plasma kallikrein (Homo sapiens, UniProt P03952)
Construct: from tissue
Sequence (P03952 391-638 limits assumed): as the sequence (P03952 391-638 limits assumed) above
Sequence (P03952 20-390 partner limits assumed): as the sequence (P03952 20-390 partner limits assumed) above
test_name: Neat human plasma assay, FXIIa contact pathway-activated, PFR-AMC substrate
Format: biochemical
condition_set: citrated human plasma 78% final, 10 nM human FXIIa, 100 μM PFR-AMC; read-out: Human Plasma Assay: IC90
assay_endpoint: IC90

Worked examples follow.
[
  {
    "compound": "Cc1ccnc([C@H]2C[C@@H]2C(=O)Nc2cc(N3C[C@@H](O)C[C@@H]3c3cn4cc(C5CC5)cc(N5CC(=O)NC5=O)c4n3)ncn2)n1 (relative stereo)",
    "assay_endpoint": "IC90",
    "endpoint_result": "0.4 to 1.5 µM"
  },
  {
    "compound": "O=C(Nc1cc(NCc2cn3cc(C4CC4)cc(NC4COC4)c3n2)ccn1)[C@H]1C[C@@H]1c1cccc(Cl)c1",
    "assay_endpoint": "IC90",
    "endpoint_result": "1.5 to 10 µM"
  },
  {
    "compound": "O=C(Nc1cc(NCc2cn3cc(C4CC4)cc(CCO)c3n2)ccn1)[C@H]1C[C@@H]1c1cccc(Cl)c1",
    "assay_endpoint": "IC90",
    "endpoint_result": "1.5 to 10 µM"
  }
]

For every listed record, write down its IC90.
1. CC(C)(O)c1cc(C2CC2)cn2cc(CNc3ccnc(NC(=O)[C@H]4C[C@@H]4c4cc(Cl)ccc4C#N)c3)nc12 (racemic)
2. Cc1ccnc([C@H]2C[C@@H]2C(=O)Nc2nc(C)nc(NCc3cn4cc(C5CC5)cc(N5CC(=O)N(C)C5=O)c4n3)n2)n1 (racemic)
3. Cc1ccnc([C@H]2C[C@@H]2C(=O)Nc2cc(NCc3cn4cc(C5CC5)cc(N5CC(=O)N(C)C5=O)c4n3)ncn2)n1 (single isomer, unassigned) [Example I-260]
4. Cc1csc([C@H]2C[C@@H]2C(=O)Nc2cc(NCc3cn4cc(C5CC5)cc(N5CC(=O)N(C)C5=O)c4n3)ncn2)n1 (racemic)
5. CN1CCN(c2cc(C3CC3)cn3cc(CNc4cc(NC(=O)[C@H]5C[C@@H]5c5cc(Cl)ccn5)ncn4)nc23)CC1 (racemic)

RESULT:
["10 to 48 µM", "< 0.4 µM", "< 0.4 µM", "0.4 to 1.5 µM", "1.5 to 10 µM"]

For every listed record, write down its IC90.
1. Cc1ccnc([C@H]2C[C@@H]2C(=O)Nc2cc(NCc3cn4cc(C5CC5)cc(N5CC(=O)N(C)C5=O)c4n3)nc(C(F)(F)F)n2)n1 (racemic)
2. O=C(Nc1cc(NCc2cn3cc(C4CC4)cc(N4CNCC4=O)c3n2)ncn1)[C@H]1C[C@@H]1c1cccc(Cl)c1
3. Cc1ccnc([C@H]2C[C@@H]2C(=O)Nc2cc(NCc3cn4cc(C5CC5)cc(N5CC(=O)N(C)C5=O)c4n3)cnn2)n1 (racemic)
4. CCN(Cc1cn2cc(C3CC3)cc(N3CC(=O)N(C)C3=O)c2n1)c1cc(NC(=O)[C@H]2C[C@@H]2c2nccc(C)n2)nc(C)n1
5. COCC(Nc1cc(NC(=O)[C@H]2C[C@@H]2c2nccc(C)n2)ncn1)c1cn2cc(C3CC3)cc(N3CC(=O)N(C)C3=O)c2n1 (stereo partly drawn)

RESULT:
0.4 to 1.5 µM
< 0.4 µM
< 0.4 µM
0.4 to 1.5 µM
0.4 to 1.5 µM

For every listed record, write down its IC90.
1. O=C(Nc1cc(NCc2cn3cc(C4CC4)cc(N4CC5CC5C4=O)c3n2)ccn1)[C@H]1C[C@@H]1c1cccc(Cl)c1 (stereo partly drawn)
2. CN1C(=O)CN(c2cc(C3CC3)cn3cc(CNc4cc(NC(=O)[C@H]5C[C@@H]5c5cc(Cl)ccc5C#N)ncn4)nc23)C1=O (racemic)
3. Cc1ncnc([C@H]2C[C@@H]2C(=O)Nc2cc(NCc3cn4cc(C5CC5)cc(N5CC(=O)N(C)C5=O)c4n3)ncn2)n1 (racemic)
4. O=C(Nc1cc(NCc2cn3cc(C4CC4)cc(C4(F)CNC4)c3n2)ccn1)[C@H]1C[C@@H]1c1cccc(Cl)c1
5. O=C(Nc1cc(NCc2cn3cc(C4CC4)cc(N4CCS(=O)(=O)CC4)c3n2)ncn1)[C@H]1C[C@@H]1c1cc(Cl)ccn1

RESULT:
1. 1.5 to 10 µM
2. 1.5 to 10 µM
3. 0.4 to 1.5 µM
4. 0.4 to 1.5 µM
5. 0.4 to 1.5 µM

For every listed record, write down its IC90.
1. O=C(Nc1cc(NCc2cn3cc(C4CC4)cc(C4(O)COC4)c3n2)ncn1)[C@H]1C[C@@H]1c1cccc(Cl)c1 (racemic)
2. Cc1cc(N2CC(=O)N(C)C2=O)c2nc([C@@H](C)Nc3cc(NC(=O)[C@H]4C[C@@H]4c4nccc(C)n4)ncn3)cn2c1
3. O=C1CN(c2cc(C3CC3)cn3cc(CNc4cc(NC(=O)[C@H]5C[C@@H]5c5cccc(Cl)c5)ncn4)nc23)C(=O)N1
4. Cc1ccnc([C@H]2C[C@@H]2C(=O)Nc2cc(NCc3cn4cc(C5CC5)cc(N5CC(=O)N(C)C5=O)c4n3)ncn2)c1 (racemic)
5. O=C(Nc1cc(NCc2cn3cc(C4CC4)cc(N4CCOC4=O)c3n2)ncn1)[C@H]1C[C@@H]1c1cccc(Cl)c1
6. O=C(Nc1cc(NCc2cn3cc(C4CC4)cc(N4CCN5CCC4C5)c3n2)ncn1)[C@H]1C[C@@H]1c1cccc(Cl)c1 (stereo partly drawn)

RESULT:
1: 1.5 to 10 µM; 2: < 0.4 µM; 3: 0.4 to 1.5 µM; 4: 0.4 to 1.5 µM; 5: 1.5 to 10 µM; 6: 1.5 to 10 µM
